Would you kindly list FACS MFI for each of these binders?
Tested system: T1, human Claudin18.1 (CLDN18.1) (human, UniProt P56856 1-261)
T1 construct: whole, on cells; also called human Claudine18.1
T1 sequence (P56856 whole entry): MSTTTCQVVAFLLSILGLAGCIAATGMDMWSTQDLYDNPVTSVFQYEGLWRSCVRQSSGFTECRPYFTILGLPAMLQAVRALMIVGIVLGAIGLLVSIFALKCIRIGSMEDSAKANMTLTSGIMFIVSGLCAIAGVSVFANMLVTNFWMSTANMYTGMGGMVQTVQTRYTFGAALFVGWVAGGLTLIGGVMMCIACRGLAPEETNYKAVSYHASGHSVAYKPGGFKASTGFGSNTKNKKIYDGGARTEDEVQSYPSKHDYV
Method: FACS on CHOK1-18.1 cells;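 also: test antibody binding to the cells detected by flow cytometry using a fluorescent dye-labelled secondary antibody, read out as median fluorescence intensity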
Output: the number by itself.

What does the data say about its FACS MFI? Entry: Ab32 (antibody, V domains shown, mouse monoclonal (hybridoma)) VH: QVQLKESGPGLVAPSQSLSITCTVSGFSLTSHGVHWVRQPPGKGLEWLGVIWAGGSINFNSALMSRLSISKDNSKNQVFLKMNSLQSDDTAMYYCARDYYYGIGLDYWGQGTTLTVS VL: DIVMTQSPSSLSVSAGEKVTMSCKSSQSLLNSGNQKNYLAWYQQKPGQPPKLLIYGASTRESGVPDRFTGSGSGTDFTLTISSVQAEDLAVYYCQNDYYYPFTFGSGTKLEIK
172

What does the data say about its FACS MFI? Entry: Ab28 (antibody, V domains shown, mouse monoclonal (hybridoma)) VH: QVQLKESGPGLVAPSQSLSITCTVSGFSLTSHGVHWVRQPPGKGLEWLGVIWAGGSINFNSALMSRLSISKDNSKNQVFLKMNSLQSDDTAMYYCARDYYYGIGLDYWGQGTTLTVS VL: DIVMTQSPSSLSVSAGEKVTMSCKSSQSLLNSGNQKNYLAWYQQKPGQPPKLLIYGASTRESGVPDRFTGSGSGTDFTLTISSVQAEDLAVYYCQNDYYYPFTFGSGTKLEIK
206

What does the data say about its FACS MFI? Entry: Ab27 (antibody, V domains shown, mouse monoclonal (hybridoma)) VH: QVQLQQSGAELVRPGSSVKISCKASGYAFSNYWMNWVKQRPGQGLEWIGQIYPGNGDTNYNGKFKGKATLTADKSSTTAYIQLSSLTSEDSAVYFCTRIYYGNSFAYWGQGTLVTVS VL: DIVMTQSPSSLTVTAGERVTMSCKSSQSLLNSGNQKNYLTWYQQKPGQPPKLLIYWASTRESGVPDRFTGSGSGTDFTLTISRVQAQDLAVYYCQNDYYYPLTFGAGTKLELK
97

What does the data say about its FACS MFI? Entry: Ab21 (antibody, V domains shown, mouse monoclonal (hybridoma)) VH: EVMLVESGGGLVKPGGSLKLSCAASGFTFSSYTMSWVRQTPEKRLEWVATIIGGYGNTYYVDSVKGRFTISRDSAKNTLYLQMISLRSEDTALYYCTRLGQTQRNAMDYWGQGTSVTVSS VL: DILMTQSPSSLSVSAGEKVTMSCKSSQSLLNSGNQKNYLAWYQQKPGQPPKLLIYGASTRESGVPDRFTGSGSGTDFTLTISSVQAEDLAVYYCQNDYYYPFTFGAGTKLEL
79.4

What does the data say about its FACS MFI? Entry: Ab14 (antibody, V domains shown, mouse monoclonal (hybridoma)) VH: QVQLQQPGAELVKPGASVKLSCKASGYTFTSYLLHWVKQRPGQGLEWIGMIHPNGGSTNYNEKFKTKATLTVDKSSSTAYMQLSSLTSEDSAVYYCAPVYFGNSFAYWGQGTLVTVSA VL: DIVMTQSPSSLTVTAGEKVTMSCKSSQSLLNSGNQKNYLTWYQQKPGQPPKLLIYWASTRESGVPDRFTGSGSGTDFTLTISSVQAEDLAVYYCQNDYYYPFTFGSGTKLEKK
97

What does the data say about its FACS MFI? Entry: Ab15 (antibody, V domains shown, mouse monoclonal (hybridoma); also called mAb Ab15) VH: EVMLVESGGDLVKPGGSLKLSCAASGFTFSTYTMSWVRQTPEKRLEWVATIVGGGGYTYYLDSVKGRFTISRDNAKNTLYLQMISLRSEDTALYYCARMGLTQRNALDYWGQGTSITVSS VL: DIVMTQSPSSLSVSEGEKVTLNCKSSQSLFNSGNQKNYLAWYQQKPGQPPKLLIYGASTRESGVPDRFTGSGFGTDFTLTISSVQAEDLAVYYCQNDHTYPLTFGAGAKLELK
80.8

What does the data say about its FACS MFI? Entry: Ab03 (antibody, V domains shown, mouse monoclonal (hybridoma)) VH: EVQLQQSGPELVKPGASVKIACKASGYTFTDYNMDWVKQSHGKSLEWIGNINSYYGGTIYNQKFKGKATLTVDKSSSTAYMVLRSLTSEDNAVYYCARPHLGNALDYWGQGTSITVSS VL: DIVVTQSPSSLTVTPGEKVTMSCKSSQSLFNSGNQKNYLSWYQQNPGQPPKLLIYWASTRQSGVPDRFTGSGSGTDFTLTISSVQAEDLAGYYCQNDYIFPLTFGAGTKLELK
95.6

What does the data say about its FACS MFI? Entry: Ab20 (antibody, V domains shown, mouse monoclonal (hybridoma)) VH: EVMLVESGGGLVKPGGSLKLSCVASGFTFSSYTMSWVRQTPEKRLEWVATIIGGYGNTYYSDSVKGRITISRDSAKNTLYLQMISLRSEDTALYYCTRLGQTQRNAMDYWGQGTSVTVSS VL: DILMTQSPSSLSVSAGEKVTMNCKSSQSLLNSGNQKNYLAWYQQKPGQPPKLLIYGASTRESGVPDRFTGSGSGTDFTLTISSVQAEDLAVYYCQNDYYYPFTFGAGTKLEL
82.3

What does the data say about its FACS MFI? Entry: Ab25 (antibody, V domains shown, mouse monoclonal (hybridoma)) VH: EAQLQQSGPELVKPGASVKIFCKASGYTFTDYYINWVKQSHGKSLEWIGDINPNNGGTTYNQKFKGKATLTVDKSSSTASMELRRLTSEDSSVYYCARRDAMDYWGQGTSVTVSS VL: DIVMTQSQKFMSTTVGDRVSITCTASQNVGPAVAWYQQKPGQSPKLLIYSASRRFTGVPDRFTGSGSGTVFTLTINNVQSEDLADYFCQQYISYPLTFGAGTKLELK
82.3

What does the data say about its FACS MFI? Entry: Ab34 (antibody, V domains shown, mouse monoclonal (hybridoma)) VH: EVLLQQSGPELVKPGASVKIPCKASGYTFSDYNMDWVKQSHGKSLEWIGHINPNNDNTIYNQKFKGKATLTVDKSSNTAYMDLRSLSSEDTAVYYCARGAYYGNSMDYWGQGTSVTVSS VL: DIVMTQSPSSLTVTAGERVTMSCKSSQSLLNGGNQRNYLTWYQQKPGQSPKLLIYWASTWESGVPDRFTGSGSGTDFTLTISSVQAEDLAVYYCQNAYFYPYTFGGGTKLEIK
91.1

What does the data say about its FACS MFI? Entry: Ab01 (antibody, V domains shown, mouse monoclonal (hybridoma)) VH: DVQLQESGPGLVKPSQSLSLTCSVTGYSITSGYYWNWIRQFPGNKLEWMGYITYDGSNNYNPSLKNRISITRDTSKNQFFLKLNSVTTEDAATYFCARDPNYYGTTLPAWFVYWGQGTLVTVSA VL: DIVVTQSHKFMSTSVGDRVSITCKASQDVGTAVAWYQQKPGQSPKLLIYWASTRHTGVPDRFTGSGSGTDFTLTISNVQSEDLTDYFCQQYSSYVTFGAGTKLELK
7250

Origin of values: patent US20230095569A1
